These entries and their values trace back to patent US8546452B2.

target of assay: hS1P3 (Homo sapiens, UniProt Q99500)
Sequence (Q99500 whole entry): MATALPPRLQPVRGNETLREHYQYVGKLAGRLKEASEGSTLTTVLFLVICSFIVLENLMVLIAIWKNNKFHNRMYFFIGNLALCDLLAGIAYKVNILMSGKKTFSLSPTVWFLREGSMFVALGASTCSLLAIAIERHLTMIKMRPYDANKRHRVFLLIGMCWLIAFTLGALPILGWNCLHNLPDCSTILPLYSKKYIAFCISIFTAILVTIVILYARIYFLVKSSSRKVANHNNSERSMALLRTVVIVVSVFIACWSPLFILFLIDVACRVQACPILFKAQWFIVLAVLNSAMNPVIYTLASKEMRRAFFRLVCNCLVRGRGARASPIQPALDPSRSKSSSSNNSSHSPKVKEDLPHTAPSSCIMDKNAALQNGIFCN
experiment description: Suppressive effect on S1P-induced increase in [Ca2+]i, CHO-K1 cells expressing S1P3 (Fura 2-AM), IC50
condition summary: S1P solution 50 nmol/L, read-out: hS1P3 suppression IC50
Reported IC50 maps to class as: band 1 (below 2000 nM), band 2 (2000 nM to below 5000 nM), band 3 (5000 nM or more)

Record excerpt, results attached:
CC(C)(C)C(=O)C(=NNc1ccc(F)cc1)Nc1ccc(Br)cc1; band 2
CC(C)(C)C(=O)C(=NNc1ccccc1)Nc1cccc(F)c1; band 3
CC(C)(C)C(=O)C(=NNc1ccc(C(F)(F)F)cc1)Nc1ccc(F)cc1; band 3
CC(C)(C)C(=O)C(=NNc1ccc(Cl)cc1)Nc1ccc(Br)cc1; band 1
CCCCC(=O)C(=NNc1ccc(Cl)cc1)Nc1ccc(Cl)c(Cl)c1; band 1
CC(C)(C)C(=O)C(=NNc1ccc(Cl)cc1)Nc1cc(Cl)cc(Cl)c1; band 1

The entry to classify is C#Cc1ccc(NC(=NNc2ccc(Cl)cc2)C(=O)CCCC)cc1 ; which class holds it? band 1

What would you report for O=C(C(=NNc1ccc(Cl)cc1)Nc1ccc(Cl)cc1)c1ccccc1 ? band 2

Here is the next molecule: CCOC(=O)C(=NNc1ccc(Cl)cc1)Nc1ccccc1 band 2

Try the molecule CC(C)(C)NC(=O)C(=NNc1ccc(Cl)cc1)Nc1cccc(F)c1 band 3

Queued: C#Cc1ccc(NC(=NNc2ccc(C#N)cc2)C(=O)C(C)(C)C)cc1 band 3

----------
What inhibition at 10 µM was measured for each of the following?
target of assay: hS1P1 (Homo sapiens, UniProt P21453)
Construct: expressed in transfected cells
Sequence (P21453 whole entry): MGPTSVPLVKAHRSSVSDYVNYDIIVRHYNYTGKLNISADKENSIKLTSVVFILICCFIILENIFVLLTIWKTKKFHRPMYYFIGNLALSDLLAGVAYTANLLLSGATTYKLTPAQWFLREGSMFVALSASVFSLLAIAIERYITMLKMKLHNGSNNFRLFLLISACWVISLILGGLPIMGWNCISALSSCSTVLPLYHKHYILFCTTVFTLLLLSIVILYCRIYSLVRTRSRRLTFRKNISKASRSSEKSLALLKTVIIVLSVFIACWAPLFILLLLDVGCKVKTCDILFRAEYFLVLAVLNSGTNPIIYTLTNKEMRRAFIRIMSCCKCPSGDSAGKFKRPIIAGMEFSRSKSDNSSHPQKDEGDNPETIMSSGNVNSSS
experiment description: S1P receptor subtype selectivity, S1P-induced [Ca2+]i increase in CHO-K1 cells stably expressing S1P1 (Calcium3)
Assay type: cell-based
condition summary: 10 μM; CHO-K1 stably expressing S1P1; S1P solution 100 nmol/L; Calcium3; read-out: Suppression rate at 10 μM (%) hS1P1
One number for each entry, in %.

CC(C)(C)C(=O)C(=NNc1ccc(Br)cc1)Nc1ccc(F)cc1; 20.4
CC(C)(C)C(=O)C(=NNc1ccc(C(F)(F)F)cc1)Nc1ccc(F)cc1; 20.8

Then this compound:
Which inhibition at 10 µM reading was recorded for the compound CC(C)(C)C(=O)C(=NNc1ccc(F)cc1)Nc1ccc(F)cc1 ? 22

----------
target of assay: hS1P2 (Homo sapiens, UniProt O95136)
Construct: expressed in transfected cells
Sequence (O95136 whole entry): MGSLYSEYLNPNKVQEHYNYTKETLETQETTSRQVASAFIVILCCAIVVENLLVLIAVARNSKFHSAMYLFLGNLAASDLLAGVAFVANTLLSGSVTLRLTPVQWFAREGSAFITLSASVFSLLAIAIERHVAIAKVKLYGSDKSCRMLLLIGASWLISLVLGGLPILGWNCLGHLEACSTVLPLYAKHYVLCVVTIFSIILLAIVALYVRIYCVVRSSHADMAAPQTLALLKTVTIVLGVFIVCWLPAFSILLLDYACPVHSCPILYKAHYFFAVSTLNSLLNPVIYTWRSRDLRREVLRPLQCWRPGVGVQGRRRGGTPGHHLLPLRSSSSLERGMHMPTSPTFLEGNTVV
experiment description: S1P receptor subtype selectivity, S1P-induced [Ca2+]i increase in CHO-K1 cells stably expressing S1P2 (Calcium3)
Type: cell-based
condition summary: 10 μM; CHO-K1 stably expressing S1P2; S1P solution 100 nmol/L; Calcium3; read-out: Suppression rate at 10 μM (%) hS1P2
Method: The selectivity to the S1P receptor subtype was examined in the following manner. […] A solution of the test compound was prepared by dissolving each of the test compounds in DMSO to a concentration of 10 mmol/L, and then diluting the solution with an HBSS (+) buffer solution to the predetermined concentration. […] A decrease in the measurement value for the test compound relative to the control was indicated as the suppression rate (%), from which the IC50 value was calculated.
Provide the reported inhibition at 10 µM of each item.
Numbers only, in %.

# annotated cases, reported inhibition at 10 µM shown
COc1ccc(NC(=NNc2ccc(F)cc2)C(=O)C(C)(C)C)cc1 [Compound 57]; 15
CC(C)(C)C(=O)C(=NNc1ccc(C(F)(F)F)cc1)Nc1ccc(F)cc1 [Compound 67]; 15.5
CC(C)(C)C(=O)C(=NNc1ccc(Br)cc1)Nc1ccc(Br)cc1 [Compound 76]; 26.1

Please give inhibition at 10 µM, item by item, for the list that follows.
1. CC(C)(C)C(=O)C(=NNc1ccc(F)cc1)Nc1cccc(F)c1 [Compound 53]
2. CC(C)(C)C(=O)C(=NNc1cccc(Cl)c1)Nc1cccc(F)c1 [Compound 41]
3. CC(C)(C)C(=O)C(=NNc1ccccc1)Nc1ccc(Cl)c(Cl)c1 [Compound 52]
4. CCOC(=O)C(=NNc1ccc(Cl)cc1)Nc1cccc(F)c1 [Compound 13]
5. Cc1ccc(NN=C(Nc2cccc(F)c2)C(=O)C(C)(C)C)cc1 [Compound 61]
6. CC(C)(C)C(=O)C(=NNc1ccc(Cl)c(Cl)c1)Nc1cccc(F)c1 [Compound 104]
7. Cc1ccc(NN=C(Nc2ccc(Cl)c(Cl)c2)C(=O)C(C)(C)C)cc1 [Compound 65]

[18.5, 27.1, 26.2, -16.7, 8.1, 18.9, 10]

Required: inhibition at 10 µM, one value per molecule below.
1. CC(C)(C)C(=O)C(=NNc1ccc(Br)cc1)Nc1ccc(F)cc1 [Compound 74]
2. CCC(CC)C(=O)C(=NNc1ccc(Cl)cc1)Nc1ccc(F)cc1 [Compound 112]
3. CC(C)(C)C(=O)C(=NNc1ccc(Br)cc1)Nc1ccc(Cl)c(Cl)c1 [Compound 80]
4. C#Cc1ccc(NN=C(Nc2cccc(F)c2)C(=O)C(C)(C)C)cc1 [Compound 131]

1. 23.2
2. 12.8
3. 26.3
4. 24.7

For every item below, please supply its inhibition at 10 µM.
1. CC(C)(C)C(=O)C(=NNc1ccc(Br)cc1)Nc1cccc(F)c1 [Compound 73]
2. CC(C)(C)C(=O)C(=NNc1ccccc1)Nc1cccc(F)c1 [Compound 49]
3. O=C(C(=NNc1ccc(Cl)cc1)Nc1cccc(F)c1F)c1ccccc1 [Compound 3]
4. CC(C)(C)CC(=O)C(=NNc1ccc(Cl)cc1)Nc1cccc(F)c1 [Compound 113]

22.3
3.6
-0.4
20.7

# get_value(readout='inhibition at 10 µM', item= CC(C)(C)C(=O)C(=NNc1ccc(Cl)cc1)Nc1ccc(Br)cc1 [Compound 134] ) 29.8

----------
Exercise: state measured pIC50 for each of the compounds provided.
target of assay: UniProtKB Q99500
experiment description: Suppressive effect on S1P-induced increase in [Ca2+]i, CHO-K1 cells expressing S1P3 (Fura 2-AM), IC50
condition summary: S1P solution 50 nmol/L, read-out: hS1P3 suppression IC50
One number for each entry, as −log10 of the molar value.

C#Cc1ccc(NC(=NNc2ccc(Cl)cc2)C(=O)c2ccco2)cc1; 5.63
CC(C)(C)C(=O)C(=NNc1ccccc1)Nc1ccc(Cl)c(Cl)c1; 5.99
CC(C)(C)CC(=O)C(=NNc1ccc(Cl)cc1)Nc1ccc(Cl)cc1; 5.77
CC(C)(C)C(=O)C(=NNc1ccc(Cl)cc1)Nc1cc(Cl)nc(Cl)c1; 5.13
COc1ccc(NN=C(Nc2ccc(Cl)cc2)C(=O)C(C)(C)C)cc1; 5.18

Could you report pIC50 for every entry in the following list?
1. CC(C)(C)C(=O)C(=NNc1ccc(Br)cc1)Nc1ccc(Cl)c(Cl)c1
2. CCC(CC)C(=O)C(=NNc1ccc(Cl)cc1)Nc1ccc(F)cc1

6.42
5.78

Lab note: each compound below needs its pIC50 filled in.
1. CC(C)(C)C(=O)C(=NNc1ccc(F)cc1)Nc1ccc(Cl)c(Cl)c1
2. O=C(C(=NNc1ccc(Cl)cc1)Nc1cccc(C(F)(F)F)c1)c1ccco1

1. 5.99
2. 5.26

----------
target of assay: hS1P3 (Homo sapiens)
experiment description: Suppressive effect on S1P-induced increase in [Ca2+]i, CHO-K1 cells expressing S1P3 (Fura 2-AM), IC50
condition summary: S1P solution 50 nmol/L, read-out: hS1P3 suppression IC50
Please map values of IC50 to classes as shown: lower bin: < 2 µM; middle bin: ≥ 2 µM and < 4 µM; upper bin: ≥ 4 µM

Answered cases to consult:
CC(C)(C)NC(=O)C(=NNc1ccc(Cl)cc1)Nc1ccc(Cl)cc1 [Compound 29]; upper bin
CC(C)(C)C(=O)C(=NNc1ccc(Br)cc1)Nc1ccc(Cl)cc1 [Compound 75]; lower bin
Cc1ccc(NN=C(Nc2ccc(Cl)cc2)C(=O)C(C)(C)C)cc1 [Compound 62]; lower bin
CC(=O)c1ccc(NN=C(Nc2ccc(F)cc2)C(=O)C(C)(C)C)cc1 [Compound 92]; upper bin
CC(C)(C)CC(=O)C(=NNc1ccc(Cl)cc1)Nc1ccc(F)cc1 [Compound 114]; middle bin
CC(C)(C)NC(=O)C(=NNc1ccc(Cl)cc1)Nc1ccc(Cl)c(Cl)c1 [Compound 31]; upper bin

Please classify: CC(C)(C)C(=O)C(=NNc1ccccc1)Nc1cc(Cl)cc(Cl)c1 [Compound 51] middle bin

How about CCOC(=O)C(=NNc1ccc(Cl)cc1)Nc1cc(Cl)cc(Cl)c1 [Compound 18] ? middle bin

Would you mind doing Cc1ccc(NN=C(Nc2ccc(C)cc2)C(=O)C(C)(C)C)cc1 [Compound 63] as well? upper bin

Next: CC(C)(C)C(=O)C(=NNc1ccc(C(F)(F)F)cc1)Nc1cccc(F)c1 [Compound 66] upper bin

Also check O=C(C(=NNc1ccc(Cl)cc1)Nc1cccc(F)c1)c1ccccc1 [Compound 1] upper bin

Entry to check: CC(C)(C)C(=O)C(=NNc1ccc(Cl)c(Cl)c1)Nc1ccc(Cl)cc1 [Compound 124] lower bin

Consider next the compound CC(C)(C)C(=O)C(=NNc1ccc(Cl)c(Cl)c1)Nc1cccc(Cl)c1 [Compound 123] in the same way. lower bin

Would you kindly repeat that for C#Cc1ccc(NC(=NNc2ccc(C(C)=O)cc2)C(=O)C(C)(C)C)cc1 [Compound 95] ? upper bin

What would you report for CC(C)(C)C(=O)C(=NNc1ccc(F)cc1)Nc1ccc(F)cc1 [Compound 54] ? upper bin

// query: CC(C)(C)C(=O)C(=NNc1ccc(F)cc1)Nc1ccc(C(F)(F)F)cc1 [Compound 58] upper bin

Continue with C#Cc1ccc(NN=C(Nc2ccc(C#C)cc2)C(=O)C(C)(C)C)cc1 [Compound 138] lower bin

Proceed to CC(C)(C)C(=O)C(=NNc1ccc(F)cc1)Nc1ccc(Cl)cc1 [Compound 55] middle bin

Entry to check: CC(C)(C)C(=O)C(=NNc1ccc(Br)cc1)Nc1cccc(F)c1 [Compound 73] lower bin

Another: CC(C)(C)C(=O)C(=NNc1ccc(Cl)c(Cl)c1)Nc1cccc(F)c1 [Compound 104] lower bin

Now consider CCC(CC)C(=O)C(=NNc1ccc(Cl)cc1)Nc1ccc(Cl)cc1 [Compound 110] . lower bin

One more compound: O=C(C(=NNc1ccc(Cl)cc1)Nc1ccc(F)cc1)c1ccco1 [Compound 118] middle bin

Queued: CCOC(=O)C(=NNc1ccc(Cl)cc1)Nc1ccc(Cl)cc1 [Compound 14] lower bin

Please give the result for Cc1ccc(NN=C(Nc2cccc(F)c2)C(=O)C(C)(C)C)cc1 [Compound 61] too. middle bin
